Test system: Mammalian orthoreovirus 1
assay_summary: Antiviral activity against Reovirus 1 infected in hamster BHK21 cells assessed as protection against viral-induced cytopathogenecity after 3 to 4 days by MTT method
Assay type: functional, cell-based
condition_description: Mammalian orthoreovirus 1, BHK-21
pEC50: −log10 of the molar value.
So I've got a bunch of compounds here, and I need their pEC50 values.

Give the reported pEC50 for this compound. Clc1ccc(NCc2cn(-c3ccccc3)nc2-c2ccc(Cl)cc2)cc1
< 4.14

Identify pEC50 associated with the compound Brc1ccc(NCc2cn(-c3ccccc3)nc2-c2ccc(Br)cc2)cc1
< 4.00

Give pEC50 for Cc1ccc(NCc2cn(-c3ccccc3)nc2-c2ccc(C)cc2)cc1
< 4.00

Give recorded pEC50. Cc1ccc(-c2nn(-c3ccccc3)cc2CNc2ccc(C(F)(F)F)cc2)cc1
< 4.06

Consider the compound C[C@@]1(O)[C@H](O)[C@@H](CO)O[C@H]1n1ccc(N)nc1=O and give its recorded pEC50.
5.22

Report pEC50, nothing else, for this compound: Cc1ccc(NCc2cn(-c3ccccc3)nc2-c2ccc(Cl)cc2)cc1
< 4.00

Please report pEC50 for the following compound: Brc1ccc(NCc2cn(-c3ccccc3)nc2-c2ccccc2)cc1
< 4.00

Answer with the recorded pEC50 of FC(F)(F)c1ccc(NCc2cn(-c3ccccc3)nc2-c2ccc(C(F)(F)F)cc2)cc1 only.
< 4.57

Supply measured pEC50 of FC(F)(F)c1ccc(NCc2cn(-c3ccccc3)nc2-c2ccccc2)cc1 in your reply.
< 4.43

Please supply the value of reported pEC50 for the item Cc1ccc(-c2nn(-c3ccccc3)cc2CNc2ccc(Cl)cc2)cc1
< 4.00

Give me measured pEC50, please, for this compound: Brc1ccc(-c2nn(-c3ccccc3)cc2CNc2ccccc2)cc1
< 4.00

Give me measured pEC50, please, for this compound: Cc1ccc(NCc2cn(-c3ccccc3)nc2-c2ccc(Br)cc2)cc1
< 4.00

Identify measured pEC50 corresponding to FC(F)(F)c1ccc(NCc2cn(-c3ccccc3)nc2-c2ccc(Br)cc2)cc1
< 4.70

Consider the compound Cc1ccc(NCc2cn(-c3ccccc3)nc2-c2ccc(C(F)(F)F)cc2)cc1 and give its recorded pEC50.
< 4.06

----------
Kindly state pEC50 for each of the entries shown.
Tested on: Enterovirus C
assay_summary: Antiviral activity against Poliovirus Sb-1 infected in African green monkey Vero 76 cells after 2 days by plaque reduction assay
Format: functional, organism-based
condition_description: Enterovirus C, Sb-1, Vero, 48 h
pEC50: −log10 of the molar value.

Indicate the recorded pEC50 value for this compound: Cc1ccc(NCc2cn(-c3ccccc3)nc2-c2ccc(Cl)cc2)cc1
< 4.00

Read the entry Cc1ccc(-c2nn(-c3ccccc3)cc2CNc2ccc(Cl)cc2)cc1 and write its reported pEC50.
< 4.00

Dear colleague, please send me the reported pEC50 for Clc1ccc(NCc2cn(-c3ccccc3)nc2-c2ccc(Cl)cc2)cc1 when you can.
< 4.05

Note down pEC50 recorded for Cc1ccc(-c2nn(-c3ccccc3)cc2CNc2ccc(C(F)(F)F)cc2)cc1
< 4.35

Read off the recorded pEC50 for Cc1ccc(NCc2cn(-c3ccccc3)nc2-c2ccc(Br)cc2)cc1
< 4.00

Indicate its recorded pEC50; the compound in question is Cc1ccc(NCc2cn(-c3ccccc3)nc2-c2ccccc2)cc1
< 4.00
